The measured values listed here are drawn from patent US20180168208A1.

- TARGET OR SYSTEM: T1R1/T1R3 receptor (Felis catus)
- ASSAY PROTOCOL: cell-based
- ASSAY SETUP: compound alone in buffer; read-out: EC50 (mM), +buffer (alone)
MEASUREMENT LABEL: EC50 (mM)
// note: answer is a bare numeric in mM

Sample O=C1CC(=O)N(Cc2ccccc2)C(=O)N1Cc1ccccc1 — what was its EC50?
0.26

Proceed to O=C(NCCc1ccccc1)c1ccc2c(c1)OCO2
0.12

Proceed to O=C(NCCc1ccccc1)c1ccccc1 [N-phenethylbenzamide]
0.33

Proceed to Nc1ccccc1C(=O)NCCc1ccccc1 [2-amino-N-phenethylbenzamide]
0.42

Proceed to O=C(NCCc1ccccc1)c1cccnc1 [N-phenethylnicotinamide]
0.37

Proceed to O=C(NCCc1c[nH]c2ccccc12)c1cccnc1 [N-(2-(1H-indol-3-yl)ethyl)nicotinamide, N-(2-(1H-Indol-3-yl)ethyl)nicotinamide]
0.15

* * *

Would you kindly list log10(EC50) for each of these compounds?
- TARGET OR SYSTEM: T1R1/T1R3 receptor (Felis catus, UniProt E3UMS2)
- ASSAY PROTOCOL: cell-based
- ASSAY SETUP: T1R1/T1R3 EC50 +0.2 mM IMP, +0.2 mM IMP
Remember, log10 of EC50, in µM.

Sample O=C(O)C1CCCCC1C(=O)Nc1cc(Cl)cc(Cl)c1 (stereo not drawn) — what was its log10(EC50)?
2.26

Proceed to O=C1CC(=O)N(Cc2ccccc2)C(=O)N1Cc1ccccc1
2.72

Proceed to O=C(NCCc1ccccc1)c1cccnc1 [N-phenethylnicotinamide]
2.54

Proceed to O=C(NCCc1ccccc1)c1ccc2c(c1)OCO2
1.60

Proceed to Nc1ccccc1C(=O)NCCc1ccccc1 [2-amino-N-phenethylbenzamide]
2.15

Proceed to O=C(NCCc1ccccc1)c1ccccc1 [N-phenethylbenzamide]
2.08

Proceed to O=C(NCCc1c[nH]c2ccccc12)c1cccnc1 [N-(2-(1H-indol-3-yl)ethyl)nicotinamide, N-(2-(1H-Indol-3-yl)ethyl)nicotinamide]
1.70

* * *

- TARGET OR SYSTEM: T1R1/T1R3 receptor (Felis catus)
- ASSAY PROTOCOL: cell-based
- Assay type: cell-based
- ASSAY SETUP: EC50 - with Ala (20 mM) and IMP (0.2 mM), with 20 mM alanine and 0.2 mM IMP
MEASUREMENT LABEL: EC50 (µM)
// note: answer is a bare numeric in µM

Sample CCCC(CCC)NC(=O)c1ccc2c(c1)OCO2 — what was its EC50?
30

* * *

- TARGET OR SYSTEM: T1R1/T1R3 receptor (Felis catus)
- ASSAY PROTOCOL: cell-based
- Type: cell-based
- ASSAY SETUP: EC50 +IMP, +IMP (0.2 mM); Table 18
pEC50: −log10 of the molar value.
Label class 1 for high-side pEC50 (at or above 3) and class 0 for low-side pEC50 (below it).

Has CCCC(C)NC(=O)c1ccc(OC)c(C)c1 (centres unmarked) a recorded pEC50 greater than or equal to 3?
class 1

Proceed to COc1ccc(/C=C/C(=O)NC2CCCCC2C)cc1 (centres unmarked)
class 0

Proceed to CCC(CC)NC(=O)c1ccc(Br)o1
class 0

Proceed to O=C(Nc1ccccc1Br)N[C@@H]1c2ccccc2C[C@@H]1O (stereo in doubt)
class 0

Proceed to CSc1ccc(-c2nnn(Cc3ccccn3)n2)cc1
class 1

Proceed to COc1ccc(C(=O)NC(C)c2ccccc2)cc1C (centres unmarked)
class 0

Proceed to CCC(CC)NC(=O)/C=C/c1ccc(OC)cc1
class 1

Proceed to CCC(CC)NC(=O)c1ccc(C)c(C)c1 [3,4-dimethyl-N-(pentan-3-yl)benzamide]
class 0

Proceed to CCC(CC)NC(=O)c1ccc(OC)c(OC)c1 [3,4-dimethoxy-N-(pentan-3-yl)benzamide]
class 0

* * *

- TARGET OR SYSTEM: T1R1/T1R3 receptor (Felis catus)
- ASSAY PROTOCOL: cell-based
- Format: cell-based
- ASSAY SETUP: +IMP (0.2 mM); Table 18
- Source text: HEK293 cells that stably express T1R3 and inducibly express T1R1 were exposed to transmembrane compounds alone or in combination with one or more amino acids and/or one or more nucleotides to activate the umami receptor. Activation of the T1R1/T1R3 receptor was detected by a change in intracellular calcium levels using a calcium sensitive fluorescent dye. Cells that express T1R3 but not T1R1 were used as a control. A FLIPR® Tetra or a FlexStation® 3 was used for data capture. […]
Would you kindly list Max resp ΔF/F +IMP for each of these compounds?
Form: value (number only, do not type unit).

Sample CCC(CC)NC(=O)/C=C/c1ccc(OC)cc1 — what was its Max resp ΔF/F +IMP?
1.443

Proceed to CCC(CC)NC(=O)c1ccc2c(c1)OCCO2
0.8725

Proceed to COc1ccc(C(=O)NC(C)c2ccccc2)cc1C (stereo not drawn)
1.1775

Proceed to CCC(CC)NC(=O)c1ccc(C)c(C)c1 [3,4-dimethyl-N-(pentan-3-yl)benzamide]
1.5475

Proceed to CCCC(C)NC(=O)c1ccc(OC)c(C)c1 (stereo not drawn)
1.5875

Proceed to CCC(CC)NC(=O)c1ccc(Br)o1
1.8425

* * *

- TARGET OR SYSTEM: T1R1/T1R3 receptor (Felis catus, UniProt E3UMS2)
- ASSAY PROTOCOL: cell-based
- ASSAY SETUP: EC50 (mM), +Alanine (20 mM), in the presence of 20 mM alanine
MEASUREMENT LABEL: EC50 (mM)
// note: answer is a bare numeric in mM

Sample Nc1ccccc1C(=O)NCCc1ccccc1 [2-amino-N-phenethylbenzamide] — what was its EC50?
0.48

* * *

- TARGET OR SYSTEM: T1R1/T1R3 receptor (Felis catus)
- ASSAY PROTOCOL: cell-based
- Assay type: cell-based
- ASSAY SETUP: compound alone in buffer; Table 18; read-out: EC50 +buffer (alone)
Would you kindly list EC50 for each of these compounds?

Sample CCC(CC)NC(=O)/C=C/c1ccc(OC)cc1 — what was its EC50?
450 µM

Proceed to O=C(NCCc1ccccc1)C(=O)NCc1cccnc1
> 1000 µM

Proceed to CC1CCCC(NC(=O)c2ccc3c(c2)OCO3)C1C (stereo not drawn)
2000 µM

Proceed to CCC(CC)NC(=O)c1ccc(OC)c(OC)c1 [3,4-dimethoxy-N-(pentan-3-yl)benzamide]
> 10000 µM

Proceed to CCCC(CCC)C(=O)Nc1ccc2c(c1)OCO2
350 µM

Proceed to COc1ccc(C(=O)NC(C)c2ccccc2)cc1C (stereo not drawn)
> 3000 µM

Proceed to CCC(CC)NC(=O)c1ccc(Br)o1
> 3000 µM

Proceed to O=C(Nc1ccccc1Br)N[C@@H]1c2ccccc2C[C@@H]1O (stereo in doubt)
> 3000 µM

Proceed to COc1ccc(/C=C/C(=O)NC2CCCCC2C)cc1 (stereo not drawn)
> 10000 µM

Proceed to CCCC(C)NC(=O)c1ccc(OC)c(C)c1 (stereo not drawn)
400 µM

Proceed to CCC(CC)NC(=O)c1ccc(C)c(C)c1 [3,4-dimethyl-N-(pentan-3-yl)benzamide]
> 3000 µM

Proceed to CCC(CC)NC(=O)c1ccc2c(c1)OCCO2
> 1000 µM

* * *

- TARGET OR SYSTEM: T1R1/T1R3 receptor (Felis catus)
- ASSAY PROTOCOL: cell-based
- ASSAY SETUP: EC50 (effect with 0.2 mM IMP), control compounds, with 0.2 mM IMP; Table 25
MEASUREMENT LABEL: pEC50
Interpret pEC50 as the negative base-10 log of the concentration measured in mol/L.

For the record N[C@@H](CO)C(=O)O [L-Serine, serine] , what value of pEC50 is listed for T1R1/T1R3 receptor (Felis catus)?
1.82

Proceed to N[C@@H](CS)C(=O)O [L-Cysteine, cysteine]
1.36

Proceed to N[C@@H](Cc1c[nH]cn1)C(=O)O [L-Histidine, L-histidine]
1.82

Proceed to N[C@@H](Cc1ccccc1)C(=O)O [L-Phenylalanine, reference compound]
3.30

Proceed to N[C@@H](Cc1c[nH]c2ccccc12)C(=O)O [L-Tryptophan, tryptophan]
3.30

Proceed to N[C@@H](Cc1ccc(O)cc1)C(=O)O [L-Tyrosine, tyrosine]
2.03

Proceed to Nc1nc2c(ncn2[C@@H]2O[C@H](COP(=O)(O)O)[C@@H](O)[C@H]2O)c(=O)[nH]1 [GMP, guanosine monophosphate, reference compound]
4.05

* * *

- TARGET OR SYSTEM: T1R1/T1R3 receptor (Felis catus, UniProt E3UMS2)
- ASSAY PROTOCOL: cell-based
- ASSAY SETUP: threshold concentration in the presence of 0.2 mM IMP
Would you kindly list Thres (mM), +IMP (0.2 mM) for each of these molecules?
// note: answer is a bare numeric in mM

Sample C[C@H](N)C(=O)O — what was its Thres (mM), +IMP (0.2 mM)?
3.0

Proceed to O=P(O)(O)OP(=O)(O)OP(=O)(O)OC[C@H]1O[C@@H](n2cnc3c(Cl)ncnc32)[C@H](O)[C@@H]1O
0.003

Proceed to N[C@@H](Cc1c[nH]cn1)C(=O)O
10.0

Proceed to CC(C)CC(NC(=O)c1ccccc1)C(N)=O (racemic)
0.1

Proceed to O=C(NCCc1ccccc1)c1cccnc1 [N-phenethylnicotinamide]
0.03

Proceed to O=C(O)C1CCCCC1C(=O)Nc1cc(Cl)cc(Cl)c1 (stereo not shown)
0.03

Proceed to N[C@@H](CO)C(=O)O
3.0

Proceed to CCCCc1nn(CC(=O)N2CCCC2)c(=O)n1Cc1ccccc1
0.1

Proceed to CCOC(=O)NC(=O)C(c1ccccc1)c1ccccc1 [Ro 01-6128, reference compound]
0.01

Proceed to N[C@@H](Cc1ccc(O)cc1)C(=O)O
3.0
